Recorded T/C for the following molecules
- Test system: L1210 leukemia ip in BDF1 mice, survival T/C
- test-summary: NCI In Vivo Anticancer Drug Screen. Data for tumor model L1210 Leukemia (intraperitoneal) in B6D2F1 (BDF1) mice
- condition-set: endpoint: mean survival time; dose: 200.0 mg/kg/injection; schedule: Q01DX001 (ip); vehicle: carboxymethylcellulose (CMC); higher = longer survival
Inconclusive results and toxic doses are left out.

> print(dat)
                                   molecule                          target.or.system  measured.quantity    observed.value
1  CC1(C)CN1P(=S)(N1CC1(C)C)N1CC1(C)C (stereo unspecified)  L1210 leukemia ip in BDF1 mice, survival T/C                T/C  164 % of control
2  CC1(C)OC2C(=O)C3COC(O3)C2O1 (stereo unspecified)  L1210 leukemia ip in BDF1 mice, survival T/C                T/C  106 % of control
3  c1ccc(C2OCCCOC2c2ccccc2)cc1 (stereo unspecified)  L1210 leukemia ip in BDF1 mice, survival T/C                T/C   97 % of control
4             CS(=O)(=O)c1nc(N)nc2nc[nH]c12  L1210 leukemia ip in BDF1 mice, survival T/C                T/C  100 % of control
5            Nc1cc2c(cc1Br)-c1ccccc1/C2=N\O  L1210 leukemia ip in BDF1 mice, survival T/C                T/C  102 % of control
6  CC1(C)OC(COS(C)(=O)=O)C2OC(C)(C)OC(COS(C)(=O)=O)C2O1 (stereo unspecified)  L1210 leukemia ip in BDF1 mice, survival T/C                T/C  101 % of control
7      CCSCCC(N)C(=O)O (stereo unspecified)  L1210 leukemia ip in BDF1 mice, survival T/C                T/C  107 % of control
8                CCC(C)(C)c1cccc(C(=O)O)c1O  L1210 leukemia ip in BDF1 mice, survival T/C                T/C   93 % of control

Please report T/C for the following molecule: O=C(COc1ccc([N+](=O)[O-])cc1)OCCN1CCOCC1
111 % of control

Please report T/C for the following molecule: CN(C)c1ccc(/C=N\NC(=S)Nc2ccc3cn[nH]c3c2)cc1
111 % of control

Please report T/C for the following molecule: O=C(O)c1cc(S(=O)(=O)Cl)ccc1Cl
104 % of control

Please report T/C for the following molecule: OC1c2ccccc2C(O)C2C3C=CC(CC3)C12 (stereo unspecified)
98 % of control

Please report T/C for the following molecule: Cc1cccc(NC(=O)OCCN(CCOC(=O)Nc2cccc(C)c2)Cc2ccccc2)c1
104 % of control

Please report T/C for the following molecule: N#CCC(=O)N/N=C\c1ccc2c(c1)OCO2
94 % of control

Please report T/C for the following molecule: Cc1c2c(c(C)c3c4c(oc13)CCCC4)C=NCC2
92 % of control

Please report T/C for the following molecule: CNC(=O)Oc1cccc(C(F)(F)F)c1
98 % of control
